experiment: Plasma stability, human plasma
reported metric: half-life at 100 μM

>>> result("CC1(C)[C@H](C(=O)[O-])N2C(=O)[C@@H](CO)[C@H]2S1(=O)=O.[Na+]")
"> 4 h"

* * *

assay: Plasma stability, monkey plasma
reported metric: half-life at 100 μM

>>> result("CC1(C)[C@H](C(=O)[O-])N2C(=O)[C@@H](CO)[C@H]2S1(=O)=O.[Na+] [Na-HMPAS]")
"> 4 h"

* * *

half-life at 100 μM values, listed per item
assay: in vitro; settings: dog, plasma
reported metric: half-life at 100 μM

>>> result("O=C(O)[C@H]1/C(=C/CO)O[C@@H]2CC(=O)N21 [Clavulanate, lithium clavulanate]")
"2.8 h"
>>> result("CC1(C)[C@H](C(=O)OCOC(=O)OC2CCOCC2)N2C(=O)[C@@H](CO)[C@H]2S1(=O)=O [Prodrug 1]")
"0.167 h"

The reported numbers originate from patent US20050004093A1.
